From: ChEMBL document CHEMBL1614632

The molecules listed here are annotated with their Vd.
Assay: clinical
Conditions: human, in vivo, iv, Vdss
Please reply with the bare figure in L/kg and do not write the unit itself.

COc1c(N2CCNC(C)C2)c(F)cc2c(=O)c(C(=O)O)cn(C3CC3)c12 (stereo not drawn) ... 1.7
CC(=O)Nc1c(I)c(C(=O)O)c(I)c(N(C)C(C)=O)c1I ... 0.17

Please examine the following record next.
Reported Vd, molecule CO/N=C(\C(=O)N[C@@H]1C(=O)N2C(C(=O)[O-])=C(C[n+]3cccc4c3CCC4)CS[C@H]12)c1csc(N)n1 : ____
0.24

---

Assay: clinical
Details: human, in vivo, iv, t1/2
Strictly below 5 h in half-life: 1 (yes). Otherwise: 0 (no).

Identify whether the molecule CCC1=C(C)CN(C(=O)NCCc2ccc(S(=O)(=O)NC(=O)N[C@H]3CC[C@H](C)CC3)cc2)C1=O [GLIMEPIRIDE] records half-life below 5 h.
0 (no)

Lab note: confirm whether the reported half-life for this molecule is below 5 h, equality not counting. molecule: CCC(C)n1ncn(-c2ccc(N3CCN(c4ccc(OCC5COC(Cn6cncn6)(c6ccc(Cl)cc6Cl)O5)cc4)CC3)cc2)c1=O (stereo not drawn) [ITRACONAZOLE]
0 (no)

I'd appreciate it if you could check whether Cc1ccc(C(=O)c2cc(O)c(O)c([N+](=O)[O-])c2)cc1 [TOLCAPONE] has half-life smaller than 5 h.
1 (yes)

Is half-life of Cc1nnc2n1-c1sc(Br)cc1C(c1ccccc1Cl)=NC2 [BROTIZOLAM] strictly below 5 h?
1 (yes)

Given the entry O=C1CN=C(c2ccccc2Cl)c2cc([N+](=O)[O-])ccc2N1 [CLONAZEPAM] , would its reported half-life be below 5 h?
0 (no)

Given O=C(O)[C@H]1/C(=C/CO)O[C@@H]2CC(=O)N21 [CLAVULANIC ACID] , is recorded half-life strictly lower than 5 h?
1 (yes)

Find out if reported half-life for CC(C)(C)NC(=O)[C@H]1CC[C@H]2[C@@H]3CC[C@H]4NC(=O)C=C[C@]4(C)[C@H]3CC[C@]12C [FINASTERIDE] is less than 5 h
0 (no)

---

Assay: clinical
Details: human, in vivo, iv
Parameter MRT: see the listing below.
Please reply with the bare figure in h and do not write the unit itself.

These recorded examples may help you get a feel for the data.
COc1ccc(CCNCC(O)COc2cccc(C)c2)cc1OC (centres undefined) [BEVANTOLOL] ... 2
O=c1[nH]c2ccccc2n1CCCN1CCC(n2c(=O)[nH]c3cc(Cl)ccc32)CC1 [DOMPERIDONE] ... 6
COc1cc([C@@H]2c3cc4c(cc3[C@@H](O[C@@H]3O[C@@H]5CO[C@@H](C)O[C@H]5[C@H](O)[C@H]3O)[C@H]3COC(=O)[C@H]23)OCO4)cc(OC)c1O [ETOPOSIDE] ... 6
CCNC(=O)[C@@H]1CCCN1C(=O)[C@H](CCCNC(=N)N)NC(=O)[C@H](CC(C)C)NC(=O)[C@@H](CC(C)C)NC(=O)[C@H](Cc1ccc(O)cc1)NC(=O)[C@H](CO)NC(=O)[C@H](Cc1c[nH]c2ccccc12)NC(=O)[C@H](Cc1c[nH]cn1)NC(=O)[C@@H]1CCC(=O)N1 [LEUPROLIDE] ... 3.1
CCCCC1=NC2(CCCC2)C(=O)N1Cc1ccc(-c2ccccc2-c2nnn[nH]2)cc1 [IRBESARTAN] ... 6.8
CN(C)CCC=C1c2ccccc2COc2ccccc21 [DOXEPIN] ... 15

Form field: reported MRT of COc1ccc2c3c1O[C@H]1C[C@@H](O)C=C[C@@]31CCN(C)C2 [GALANTAMINE]
6.8

Name the reported MRT value associated with the compound Cn1nnnc1SCC1=C(C(=O)O)N2C(=O)[C@@H](NC(=O)[C@H](O)c3ccccc3)[C@H]2SC1 [CEFAMANDOLE]
0.75

Given CN1Cc2c(N)cccc2C(c2ccccc2)C1 (centres undefined) [NOMIFENSINE] , state its recorded MRT.
4.5
